# System: Plasmodium berghei
# PROTOCOL DESCRIPTION: Luciferase/luciferin-expressing antifolate-resistant parasites were used to infect a culture of HepG2 cells that were pre-incubated with compounds. Infected hepatocytes emit light due to the luciferase reaction. Assay results are presented as the percent inhibition of light emission compared to control. […]
# Assay type: functional
# SETUP CONDITIONS: sporozoite, FFLUC_HILL_SLOPE 30.4, FFLUC_R_SQUARED 0.313, read-out: LUCIFERASE INFECTION ASSAY - IC50
METRIC: IC50

In [3]: df
Out[3]:
                            smiles_notation    target_or_system  metric  endpoint_value
0  CCCOc1ccc(C=C(c2nc3ccccc3s2)c2nc3ccccc3s2)c(O)c1  Plasmodium berghei    IC50         > 10 µM

meta.source: ChEMBL document CHEMBL4483862
